tested on: JEKO-1 cells; assay: cells; settings: Homo sapiens, JeKo-1, 48 h, JEKO-1 cells, incubated 2 days, MTT, four parameter logistic fit
endpoint-name: IC50 (µM)
Answer format: numeric, µM implied, no suffix.

Returns the measured IC50 for the input compound. Input: O=C(N/N=C/C=C/c1ccc([N+](=O)[O-])o1)c1cccs1 [CBU-034]
20

Returns the measured IC50 for the input compound. Input: O=C(N/N=C/C=C/c1ccc([N+](=O)[O-])o1)c1cnc2c(C(F)(F)F)cccc2c1O [CBU-040]
10

Returns the measured IC50 for the input compound. Input: O=C(N/N=C/C=C/c1ccc([N+](=O)[O-])cc1)c1cc2ccccc2cc1O [CBU-061]
5

Returns the measured IC50 for the input compound. Input: Cc1cccc(C(=O)N/N=C/C=C/c2ccc([N+](=O)[O-])o2)c1O [CBU-038]
9

Returns the measured IC50 for the input compound. Input: O=C(N/N=C/C=C/c1ccc([N+](=O)[O-])o1)c1ccccc1 [CBU-015]
8

Returns the measured IC50 for the input compound. Input: O=C(N/N=C/C=C/c1ccc([N+](=O)[O-])o1)c1cc(Br)ccc1O [CBU-041]
10

Returns the measured IC50 for the input compound. Input: CC1(C)C(N(O)C(=O)Nc2ccc(Cl)cc2)N(c2ccc(Cl)cc2)C(=O)N1CC(=O)N/N=C/c1ccc([N+](=O)[O-])o1 (centres unmarked) [CBU-024]
7

Returns the measured IC50 for the input compound. Input: COc1ccc(O)c(C(=O)N/N=C/C=C/c2ccc([N+](=O)[O-])o2)c1 [CBU-046]
10

====

target: recombinant wild type p97 (Homo sapiens, UniProt P55072); assay: Surface plasmon resonance binding to recombinant p97; conditions: SPR, 25° C., recombinant p97 purified from E. coli; read-out: estimated Kd
Sequence (P55072 whole entry): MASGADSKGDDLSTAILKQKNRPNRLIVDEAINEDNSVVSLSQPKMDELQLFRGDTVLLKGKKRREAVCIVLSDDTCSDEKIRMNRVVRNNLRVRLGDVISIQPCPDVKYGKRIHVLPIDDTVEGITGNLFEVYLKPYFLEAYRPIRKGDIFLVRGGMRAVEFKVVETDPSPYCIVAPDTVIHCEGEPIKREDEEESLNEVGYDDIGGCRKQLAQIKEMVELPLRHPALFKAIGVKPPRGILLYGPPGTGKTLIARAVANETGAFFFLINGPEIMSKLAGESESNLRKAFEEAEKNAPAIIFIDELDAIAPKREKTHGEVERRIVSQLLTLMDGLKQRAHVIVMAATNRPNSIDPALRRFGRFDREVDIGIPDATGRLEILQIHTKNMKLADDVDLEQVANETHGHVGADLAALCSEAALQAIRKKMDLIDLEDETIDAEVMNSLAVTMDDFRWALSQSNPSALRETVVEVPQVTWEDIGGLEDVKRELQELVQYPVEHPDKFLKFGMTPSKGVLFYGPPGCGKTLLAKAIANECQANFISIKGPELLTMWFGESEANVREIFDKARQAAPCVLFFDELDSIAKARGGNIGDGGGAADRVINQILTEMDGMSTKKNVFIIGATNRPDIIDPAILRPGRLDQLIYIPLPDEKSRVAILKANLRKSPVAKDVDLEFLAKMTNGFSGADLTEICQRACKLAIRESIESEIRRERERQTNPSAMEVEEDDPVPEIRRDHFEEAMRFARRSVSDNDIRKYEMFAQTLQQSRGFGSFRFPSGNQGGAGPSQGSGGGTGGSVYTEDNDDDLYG
endpoint-name: Kd

Returns the measured Kd for the input molecule. Input: CC1(C)C(N(O)C(=O)Nc2ccc(C(F)(F)F)cc2)N(c2ccc(Cl)cc2)C(=O)N1CC(=O)N/N=C/C=C/c1ccc([N+](=O)[O-])o1 (stereo not shown) [CBU-003]
5 to 10 µM

====

tested on: JEKO-1 cells; assay: cells; conditions: Homo sapiens, JeKo-1, 48 h, JEKO-1 cells, incubated 2 days, MTT, four parameter logistic fit
pIC50: −log10 of the molar value. Where a name gives a salt, the structure may show the parent alone.
Rule: rule met for pIC50 not less than 5, rule not met for anything less.

Is the recorded value of pIC50 equal to or greater than 5 for this compound? O=C(CNC(=O)Nc1ccc(Cl)cc1)N/N=C/C=C/c1ccc([N+](=O)[O-])o1
rule met

Is the recorded value of pIC50 equal to or greater than 5 for this compound? C[N+](C)(C)CC(=O)N/N=C/C=C/c1ccc([N+](=O)[O-])o1
rule met

Is the recorded value of pIC50 equal to or greater than 5 for this compound? CCNC(=S)N/N=C/C=C/c1ccc([N+](=O)[O-])o1
rule not met

Is the recorded value of pIC50 equal to or greater than 5 for this compound? N=C(N)N/N=C/C=C/c1ccc([N+](=O)[O-])o1 [CBU-020, hydrochloride]
rule met

Is the recorded value of pIC50 equal to or greater than 5 for this compound? CC1(C)C(N(O)C(=O)Nc2ccc(Cl)cc2)N(c2ccc(Cl)cc2)C(=O)N1CC(=O)N/N=C/C=C/c1ccco1 (centres unmarked)
rule not met

Is the recorded value of pIC50 equal to or greater than 5 for this compound? O=C(N/N=C/C=C/c1ccc([N+](=O)[O-])o1)c1ccc(O)cc1O
rule not met

Is the recorded value of pIC50 equal to or greater than 5 for this compound? CC(C)(C)OC(=O)N/N=C/C=C/c1ccc([N+](=O)[O-])o1
rule not met

Is the recorded value of pIC50 equal to or greater than 5 for this compound? CC1(C)C(N(O)C(=O)Nc2ccc(Cl)cc2)N(c2ccc(C(F)(F)F)cc2)C(=O)N1CC(=O)N/N=C/C=C/c1ccc([N+](=O)[O-])o1 (centres unmarked)
rule met

Is the recorded value of pIC50 equal to or greater than 5 for this compound? Cc1ccc(O)c(C(=O)N/N=C/C=C/c2ccc([N+](=O)[O-])o2)c1
rule met

Is the recorded value of pIC50 equal to or greater than 5 for this compound? O=C(/C=C/c1ccc([N+](=O)[O-])o1)NNC(=O)c1cc2ccccc2cc1O
rule met

Is the recorded value of pIC50 equal to or greater than 5 for this compound? COc1ccc(C(=O)N/N=C/C=C/c2ccc([N+](=O)[O-])o2)c(O)c1
rule not met

Is the recorded value of pIC50 equal to or greater than 5 for this compound? O=C(N/N=C/C=C/c1ccc([N+](=O)[O-])o1)c1cnc2cc(C(F)(F)F)ccc2c1O
rule not met

Is the recorded value of pIC50 equal to or greater than 5 for this compound? O=C(CCCC[C@@H]1SCC2NC(=O)NC21)N/N=C/C=C/c1ccc([N+](=O)[O-])o1 (some centres unmarked)
rule not met

Is the recorded value of pIC50 equal to or greater than 5 for this compound? CC1(C)C(N(O)C(=O)Nc2ccc(C(F)(F)F)cc2)N(c2ccc(Cl)cc2)C(=O)N1CC(=O)N/N=C/C=C/c1ccc([N+](=O)[O-])o1 (centres unmarked)
rule met

Is the recorded value of pIC50 equal to or greater than 5 for this compound? CC1(C)C(N(O)C(=O)Nc2ccc(C(F)(F)F)cc2)N(c2ccc(C(F)(F)F)cc2)C(=O)N1CC(=O)N/N=C/C=C/c1ccc([N+](=O)[O-])o1 (centres unmarked)
rule met

Is the recorded value of pIC50 equal to or greater than 5 for this compound? CN(C)c1ccc(/C=C/C=N/NC(=O)c2cc3ccccc3cc2O)cc1
rule not met

Is the recorded value of pIC50 equal to or greater than 5 for this compound? O=C(N/N=C/C=C/c1ccc([N+](=O)[O-])o1)c1cccnc1
rule met

Is the recorded value of pIC50 equal to or greater than 5 for this compound? O=C(N/N=C/C=C/c1ccc([N+](=O)[O-])o1)c1ccncc1
rule met

Is the recorded value of pIC50 equal to or greater than 5 for this compound? CC1(C)C(N(O)C(=S)Nc2ccc(Cl)cc2)N(c2ccc(Cl)cc2)C(=S)N1CC(=O)N/N=C/C=C/c1ccc([N+](=O)[O-])o1 (centres unmarked)
rule met

Is the recorded value of pIC50 equal to or greater than 5 for this compound? O=C(N/N=C/C=C/c1ccc([N+](=O)[O-])o1)c1ccccc1O
rule met

Is the recorded value of pIC50 equal to or greater than 5 for this compound? O=C(N/N=C/C=C/c1ccc([N+](=O)[O-])o1)c1cc2ccccc2cc1O
rule met

Is the recorded value of pIC50 equal to or greater than 5 for this compound? O=C(N/N=C/C=C/c1ccccc1[N+](=O)[O-])c1cc2ccccc2cc1O
rule met
